- System: UniProt P23743
- Method Notes: DGKα LIPGLO assay (extruded liposome substrate)
- Format: biochemical
- Experimental: The DGKα and DGKζ reactions were performed using either extruded liposome (DGKα and DGKζ LIPGLO assays) or detergent/lipid micelle substrate (DGKα and DGKζ assays). […] The compound inhibition studies were carried out as follows: 50 nL droplets of each test compound (top concentration 10 mM with 11 point, 3-fold dilution series for each compound) solubilized in DMSO were transferred to wells of a white 1536 well plate (Corning 3725). […] Luminescence was recorded using an EnVision microplate reader. […]
Each entry below lists one item and its recorded pIC50 value.
For clarity, pIC50 is expressed as the negative log10 of concentration in mol/L.

Example results:
Compound | System | pIC50
Cn1c(=O)c(C#N)c(N2CCN(Cc3ccc(C(C)(C)C)cc3O)CC2)c2nc(Cl)ccc21 | UniProt P23743 | 6.15
Cn1c(=O)c(C#N)c(N2CCN(Cc3ccc(Cl)c(O)c3)CC2)c2nc(Cl)ccc21 | UniProt P23743 | 5.92
Cc1ccc(CN2CCN(c3c(C#N)c(=O)n(C)c4ccc(Cl)nc34)CC2)cc1 | UniProt P23743 | 6.59
COc1cc(F)ccc1C(c1ccc(F)cc1)N1CCN(c2c([N+](=O)[O-])c(=O)n(C)c3ccc(C#N)nc23)CC1 (single isomer, unassigned) [Example 125] | UniProt P23743 | 4.96
COc1cc(C#N)ccc1CN1CCN(c2c(C#N)c(=O)n(C)c3ccc(Cl)nc23)CC1 | UniProt P23743 | 5.85

In the following, a different compound is considered.
Form field pIC50, entry Cn1c(=O)c(C#N)c(N2CCN(C(c3ccc(F)cc3)C3CCC3)CC2)c2nc(Cl)ccc21 (single isomer, unassigned) [Example 383] : 6.66

* * *

Listing of entries alongside the reported pIC50.
- System: pre-activated CD4 T cells and Raji cells
- Method Notes: Raji CD4 T Cell IL2 Assay
- Type: cell-based
The read-out pIC50 is expressed as -log10 of concentration in moles per litre.

Sample records with pIC50:
Compound | System | Measurement Type | Reported Value
CC(c1ccc(F)cc1)N1CCN(c2c(C#N)c(=O)n(CC3CC3)c3ccc(Br)nc23)CC1 (single isomer, unassigned) | pre-activated CD4 T cells and Raji cells | pIC50 | 5.59
C=CCOc1cccc(C)c1C(c1ccc(F)cc1)N1CCN(c2c([N+](=O)[O-])c(=O)n(C)c3ccc(Br)nc23)CC1 (single isomer, unassigned) [Example 95] | pre-activated CD4 T cells and Raji cells | pIC50 | 5.96

Turning now to a further record.
The value of pIC50 measured for the compound COCCn1c(=O)c([N+](=O)[O-])c(N2CCN(C(C)c3ccc(F)cc3)CC2)c2nc(C#N)ccc21 (single isomer, unassigned) [Example 150] turned out to be 6.29

* * *

- System: UniProt:P23743
- Method Notes: DGKα LIPGLO assay (extruded liposome substrate)
- Assay type: biochemical
- Experimental: The DGKα and DGKζ reactions were performed using either extruded liposome (DGKα and DGKζ LIPGLO assays) or detergent/lipid micelle substrate (DGKα and DGKζ assays). […] The compound inhibition studies were carried out as follows: 50 nL droplets of each test compound (top concentration 10 mM with 11 point, 3-fold dilution series for each compound) solubilized in DMSO were transferred to wells of a white 1536 well plate (Corning 3725). […] Luminescence was recorded using an EnVision microplate reader. […]
Measurement Type: IC50 (nM)
Quick note: give the figure in nM, leave out the unit.

Molecule | System | Reported Value
COc1cc(F)ccc1C(c1ccc(F)cc1)N1CCN(c2c(C#N)c(=O)n(C)c3ccc(Br)nc23)CC1 (single isomer, unassigned) [Example 16] | UniProt:P23743 | 4300

Value of measured IC50 for the entry CC(c1ccc(F)cc1)N1CCN(c2c(C#N)c(=O)n(C)c3ccc(Br)nc23)CC1 (single isomer, unassigned) [Example 23] : 1900

Reported IC50 ( CCn1ccc2c(CN3CCN(c4c(C#N)c(=O)n(C)c5ccc(Br)nc45)CC3)cccc21 ) = 820

IC50 recorded for this molecule, Cn1c(=O)c([N+](=O)[O-])c(N2CCN(C(c3ccc(F)cc3)C3CC3)CC2)c2nc(C#N)ccc21 (single isomer, unassigned) [Example 51] , is 330

Record CC(c1ccc(F)cc1)N1CCN(c2c([N+](=O)[O-])c(=O)n(CC#N)c3ccc(C#N)nc23)CC1 (centres unmarked) . Reported IC50: 7300

Lookup result for COc1ccccc1C(c1ccc(F)cc1)N1CCN(c2c(C#N)c(=O)n(C)c3ccc(Br)nc23)CC1 (single isomer, unassigned) [Example 13] ; measured IC50: 5400

IC50 reading for Cn1c(=O)c(C#N)c(N2CCN(Cc3cc(F)ccc3O)CC2)c2nc(Cl)ccc21 : 220

* * *

Reported pIC50 by item:
- System: UniProt P23743
- Method Notes: DGKα LIPGLO assay (extruded liposome substrate)
- Assay type: biochemical
pIC50 here: minus log base 10 of the concentration, concentration in moles per litre.

In the examples that follow, each entry is paired with its recorded pIC50.
Compound | Reported Value
Cn1c(=O)c(C#N)c(N2CCN([C@@H](c3ccccc3)c3ccc(Cl)cc3)CC2)c2nc(Br)ccc21 | 5.00
Cn1c(=O)c(C#N)c(N2CCN(C(c3ccccc3)c3ccc(F)cc3)CC2)c2nc(C#N)ccc21 (stereo not shown) | 5.31
CC(c1ccc(F)cc1)N1CCN(c2c(C#N)c(=O)n(CC3CC3)c3ccc(Br)nc23)CC1 (single isomer, unassigned) [Example 163] | 3.96

Shift focus to the following entry.
Query Cc1ccc2c(n1)c(N1CCN(C3CCOc4ccccc43)CC1)c(C#N)c(=O)n2C (stereo not shown) yields pIC50 of 4.40

* * *

// IC50 lookup, one value per entry
- System: UniProt Q13574
- Sequence (Q13574 other isoform, or with tags, fused parts or gaps): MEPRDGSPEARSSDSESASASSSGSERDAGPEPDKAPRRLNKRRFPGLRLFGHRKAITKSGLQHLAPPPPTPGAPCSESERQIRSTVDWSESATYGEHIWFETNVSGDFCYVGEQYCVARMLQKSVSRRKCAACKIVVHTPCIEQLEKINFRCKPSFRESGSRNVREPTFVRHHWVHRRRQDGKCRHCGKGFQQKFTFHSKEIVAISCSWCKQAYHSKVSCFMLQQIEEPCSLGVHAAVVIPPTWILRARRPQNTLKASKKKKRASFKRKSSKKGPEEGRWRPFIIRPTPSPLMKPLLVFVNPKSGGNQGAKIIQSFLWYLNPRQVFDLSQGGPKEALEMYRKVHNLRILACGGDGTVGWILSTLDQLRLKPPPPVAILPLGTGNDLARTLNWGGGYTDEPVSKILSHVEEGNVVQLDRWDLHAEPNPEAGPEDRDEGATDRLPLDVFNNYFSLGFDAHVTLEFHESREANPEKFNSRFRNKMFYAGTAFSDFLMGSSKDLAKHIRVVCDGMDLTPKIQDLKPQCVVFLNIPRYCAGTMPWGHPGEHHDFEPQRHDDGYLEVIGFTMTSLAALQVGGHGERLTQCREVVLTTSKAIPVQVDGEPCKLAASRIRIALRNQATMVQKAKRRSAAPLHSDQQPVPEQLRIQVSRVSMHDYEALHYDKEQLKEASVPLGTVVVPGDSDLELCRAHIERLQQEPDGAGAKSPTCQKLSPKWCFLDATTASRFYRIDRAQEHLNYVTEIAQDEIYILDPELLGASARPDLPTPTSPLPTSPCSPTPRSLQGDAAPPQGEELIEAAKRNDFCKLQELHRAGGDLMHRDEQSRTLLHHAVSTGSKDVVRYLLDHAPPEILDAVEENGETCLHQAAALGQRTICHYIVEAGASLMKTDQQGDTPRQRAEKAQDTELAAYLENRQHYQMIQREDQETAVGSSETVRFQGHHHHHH
- Method Notes: DGKζ assay (detergent/lipid micelle substrate)
- Type: biochemical
- Assay Context: detergent/lipid micelle substrate; read-out: DGKζ IC50

Check out these entries, answers already filled in.
Compound | IC50
Cn1c(=O)c(C#N)c(N2CCN(Cc3cc(C#N)ccc3F)CC2)c2nc(Cl)ccc21 [Example 340] | > 240 µM
C=CCOc1cc(F)cc2c1C(N1CCN(c3c(C#N)c(=O)n(C)c4ccc(Cl)nc34)CC1)CC2 (centres unmarked) [Example 200] | > 240 µM
CC(c1ccc(F)cc1)N1CCN(c2c(C#N)c(=O)n(C)c3ccc(Br)nc23)CC1 (single isomer, unassigned) [Example 24] | > 240 µM
Cn1c(=O)c(C#N)c(N2CCN(Cc3ccccc3Cl)CC2)c2nc(Cl)ccc21 [Example 272] | > 240 µM

Sample N#CCn1c(=O)c([N+](=O)[O-])c(N2CCN(C(c3ccc(F)cc3)c3ccc(F)cc3)CC2)c2nc(C#N)ccc21 [Example 152] ; IC50 observed: 3.9 µM

Reported IC50 ( Cn1c(=O)c(C#N)c(N2CCN(Cc3ccccc3OC(F)(F)F)CC2)c2nc(Cl)ccc21 [Example 285] ) = > 240 µM

IC50 reading for C#CCn1c(=O)c([N+](=O)[O-])c(N2CCN(C3CCc4ccc(OC)cc43)CC2)c2nc(C#N)ccc21 (centres unmarked) [Example 138] : 0.73 µM

* * *

- System: human DGKα (Homo sapiens (Human), UniProt P23743)
- Sequence (P23743 other isoform, or with tags, fused parts or gaps): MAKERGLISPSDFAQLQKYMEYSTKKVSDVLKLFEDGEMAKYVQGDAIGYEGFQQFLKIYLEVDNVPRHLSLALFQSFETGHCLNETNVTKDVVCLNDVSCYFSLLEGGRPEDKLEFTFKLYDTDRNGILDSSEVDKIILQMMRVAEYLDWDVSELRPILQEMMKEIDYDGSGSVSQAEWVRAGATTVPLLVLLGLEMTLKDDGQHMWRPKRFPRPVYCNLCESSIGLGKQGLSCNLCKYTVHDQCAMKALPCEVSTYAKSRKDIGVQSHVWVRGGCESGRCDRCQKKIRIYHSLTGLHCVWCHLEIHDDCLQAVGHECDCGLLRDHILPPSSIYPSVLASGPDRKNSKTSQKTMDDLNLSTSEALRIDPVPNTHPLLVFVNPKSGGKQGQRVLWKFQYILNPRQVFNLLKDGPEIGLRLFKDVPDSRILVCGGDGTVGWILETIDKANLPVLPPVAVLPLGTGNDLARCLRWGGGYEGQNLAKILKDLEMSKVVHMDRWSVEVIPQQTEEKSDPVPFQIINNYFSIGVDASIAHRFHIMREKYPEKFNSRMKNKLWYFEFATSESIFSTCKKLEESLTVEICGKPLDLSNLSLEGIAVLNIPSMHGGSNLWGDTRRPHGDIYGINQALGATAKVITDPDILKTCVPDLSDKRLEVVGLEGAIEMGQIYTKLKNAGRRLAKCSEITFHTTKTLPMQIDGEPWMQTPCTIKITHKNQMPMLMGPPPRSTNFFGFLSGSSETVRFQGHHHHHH
- Method Notes: DGKα LIPGLO assay (extruded liposome substrate)
- Assay type: biochemical
pIC50: −log10 of the molar value.
Assign true whenever pIC50 does not fall below 6; assign false whenever it does.

Consider the following illustrative entries.
Compound | Assigned Label
Cn1c(=O)c(C#N)c(N2CCN(C(c3ccc(F)cc3)c3ccccc3O)CC2)c2nc(C#N)ccc21 (centres unmarked) [Example 11] | false
Cn1c(=O)c(C#N)c(N2CCN(C(c3ccc(Cl)cc3)c3ccc(Cl)cc3)CC2)c2nc(Br)ccc21 [Example 393] | false
Cn1c(=O)c(C#N)c(N2CCN(Cc3cccc(F)c3O)CC2)c2nc(Br)ccc21 [Example 304] | true
COc1ccc2c(n1)c(N1CCN(C(c3ccc(Cl)cc3)c3ccc(Cl)cc3)CC1)c(C#N)c(=O)n2C [Example 395] | false
N#CCCCn1c(=O)c([N+](=O)[O-])c(N2CCN(C(c3ccccc3)c3ccccc3)CC2)c2ncccc21 [Example 183] | false
Cn1c(=O)c(C#N)c(N2CCN(Cc3ccc(Cl)cc3O)CC2)c2nc(Cl)ccc21 [Example 288] | true

Ask: Quick check, pIC50 >= 6? CC(c1ccc(F)cc1)N1CCN(c2c(C#N)c(=O)n(C)c3ccc(Cl)nc23)CC1 (single isomer, unassigned) [Example 387]
Result: true

Ask: // inclusive: pIC50 at least 6? input: CC(c1ccc(F)cc1)N1CCN(c2c(C#N)c(=O)n(C)c3ccc(Br)nc23)CC1 (single isomer, unassigned) [Example 24]
Result: true

Ask: Hi, just wondering whether CCC(c1ccc(F)cc1)N1CCN(c2c(C#N)c(=O)n(C)c3ccc(Br)nc23)CC1 (single isomer, unassigned) [Example 26] shows pIC50 of 6 or higher.
Result: false

Ask: In plain terms: is recorded pIC50 at least 6 for Cc1ccc2c(n1)c(N1CCN(C(c3ccc(F)cc3)c3ccccn3)CC1)c(C#N)c(=O)n2C (centres unmarked) [Example 256] ?
Result: false

Ask: Item O=c1c([N+](=O)[O-])c(N2CCN(C(c3ccccc3)c3ccccc3)CC2)c2ncccc2n1CCC1OCCCO1 [Example 166] with pIC50 of 6 or above?
Result: false

Where do these numbers come from? They come from patent US11866430B2.
